experiment: Chemical stability of the compound; assay type: physicochemical
OBSERVED PROPERTY: Stability

[
  {
    "SMILES TEXT": "CC(=O)OCOC(=O)Cc1cn2nc(-c3ccc(Cl)cc3)ccc2n1",
    "OBSERVED PROPERTY": "Stability",
    "READING": "Unstable"
  },
  {
    "SMILES TEXT": "CC(C)(C)C(=O)OCOC(=O)Cc1cn2nc(-c3ccc(Cl)cc3)ccc2n1",
    "OBSERVED PROPERTY": "Stability",
    "READING": "Unstable"
  },
  {
    "SMILES TEXT": "CCOC(=O)Cc1cn2nc(-c3ccc(Cl)cc3)ccc2n1",
    "OBSERVED PROPERTY": "Stability",
    "READING": "Unstable"
  }
]
